Provenance of the data: patent US20260008815A1

# SYSTEM_UNDER_TEST: T1, Recombinant Human FGFR2 alpha (IIIc) Fc Chimera Protein, CF (R&D systems, 712-FR-050) (human, UniProt P21802 22-377)
# T1 construct: bought; not shown: Fc part of the chimera
# ASSAY_EXPLANATION: ELISA on plate-bound FGFR2-Fc
Bridge positions count the residues as written; N and C are the ends. Ends that are not written are not given here. COCH2 = acetyl group that carries the bridge
Here, each record is paired with measured ELISA luminescence signal at 10 nmol/L peptide, relative to SEQ ID NO: 47 (=1) data.

Worked set:
ICEENYLDPEQYQYFIYFK(COCH2)Y (thioether 2-19) [cyclic peptide SEQ ID NO: 139] ... ≥ 0.7 ratio
TCPQNFINPVQWRYFQHYK(COCH2)N (thioether 2-19 (inferred)) [cyclic peptide SEQ ID NO: 82] ... ≥ 0.7 ratio

Moving on to another binder below.
Suppose we examine the binder YCWENYLDPEQYQYFIYFK(COCH2)Y (thioether 2-19) [cyclic peptide SEQ ID NO: 158] ; what ELISA luminescence signal at 10 nmol/L peptide, relative to SEQ ID NO: 47 (=1) value has been reported?
≥ 0.7 ratio
